System: Sheep red blood cells
Test: Hemolysis assay (HC50)
Type: cell-based
Method: The hemolysis assay was conducted according to the procedure described previously. Sheep red blood cells (Defibrillated Sheep Blood, Graso, Poland) were used. […]
Peptide text beside a SMILES is read from it.
PARAMETER MEASURED: HC50

Query CC[C@H](C)[C@H](N)C(=O)N[C@@H](CC(C)C)C(=O)N[C@@H](CCCNC(=N)N)C(=O)N[C@@H](Cc1c[nH]c2ccccc12)C(=O)N1CCC[C@H]1C(=O)N[C@@H](Cc1c[nH]c2ccccc12)C(=O)N[C@@H](Cc1c[nH]c2ccccc12)C(=O)N1CCC[C@H]1C(=O)N[C@@H](Cc1c[nH]c2ccccc12)C(=O)N[C@@H](CCCNC(=N)N)C(=O)N[C@@H](CCCNC(=N)N)C(=O)N[C@@H](CCCCN)C(N)=O [Omiganan] (H-ILRWPWWPWRRK-NH2) yields HC50 of > 512 µg/mL
